Numbers sourced from the supplement of paper PMC11923942.

Assay: collision cross section (N2, base ion); higher = larger ion cross section
property.measured: collision cross section (Å²)

compound="Clc1ccc(Cl)c(-c2c(Cl)c(Cl)c(Cl)c(Cl)c2Cl)c1Cl [PCB 200] (APCI source condition: Dry, base ion: M+.)" unit_of_measurement=Å² data_value=167.33
compound="C=C(Br)COc1c(Br)cc(Br)cc1Br [2-Bromoallyl 2,4,6-tribromophenyl ether] (APCI source condition: Dry, base ion: [M-Br]+)" unit_of_measurement=Å² data_value=143.35
compound="CCCCC(CC)COC(=O)c1c(Br)c(Br)c(Br)c(Br)c1C(=O)OCC(CC)CCCC (stereo not drawn) [Bis(2-ethylhexyl) tetrabromophthalate] (APCI source condition: Dry, base ion: C8HBr4O3+)" unit_of_measurement=Å² data_value=141.58
